Test system: UACC-257 melanoma
methodSummary: NCI tumour cell line growth inhibition, 48 h
measurementType: TGI

Item under review: CN/C=C(/c1ccc(OC)cc1)C(O)c1ccc(OC)c(OC)c1 (stereo not drawn) . Reported TGI? > 100 µM

Consider the molecule Nc1ccc(-c2ccc(Nc3cc(S(=O)(=O)O)c(N)c4c3C(=O)c3ccccc3C4=O)cc2)c(S(=O)(=O)O)c1 and give its measured TGI. > 100 µM

Recorded TGI of CC(=O)c1cccc(Nc2c3ccccc3nc3occc23)c1 , please. 25.5 µM

Given the molecule Cc1ccc(/C=C/C(=O)C(C)C)cc1 , what is its reported TGI? > 100 µM

What TGI value was documented for this molecule, CCN(CC)CCSc1n[nH]c(-c2c[nH]c3nc(C)ccc3c2=O)n1 ? > 100 µM

I would be grateful if you could share the reported TGI for O=C(O)c1c([N+](=O)[O-])cc(C(F)(F)F)cc1[N+](=O)[O-] . > 100 µM

Requested field: TGI. Item: CC(C)Oc1c(C2(c3ccccc3O)SCCCS2)c(=O)c1=O > 100 µM

Query: TGI; subject: C=C(CN(C)C)C(=O)c1ccc(C)cc1C 24.8 µM

For Brc1cccc(Nc2ncnc3sc4c(c23)CCC(Nc2cccc(Br)c2)C4)c1 (stereo not drawn) , what is its reported TGI? > 100 µM

Entry under review: c1cc2[nH]snc2c2cncc12 . Reported TGI? > 100 µM

Please give the measured TGI for this molecule: c1ccc(CN2CCCN3CCN(CCCN(Cc4ccccc4)CC3)CC2)cc1 68.5 µM

Quick one: TGI for COc1cccc2c1C(=O)c1c(O)c3c(c(O)c1C2=O)C[C@@](O)(C(=O)CO)C[C@@H]3OC1CC(OC(C)=O)C(OC(C)=O)C(C)O1 (stereo partly drawn) ? 4.25 µM

I am curious: what TGI value has been reported for Cc1cc(C)c(S(=O)(=O)N(CCCCCCN)OCCCN)c(C)c1 ? 29.7 µM

Quick one: TGI for CCc1cccc(CC)c1Nc1nc2c(s1)C(=O)c1ccccc1C2=O ? 37.8 µM

Endpoint output: TGI of Cc1c2cnccc2c(C)c2c1c1cc(C(=O)O)ccc1n2C . Value? 4.84 µM

What TGI value was documented for this molecule, CCN(CC)CCOc1ccc(N2Cc3ccccc3C2=O)cc1 ? > 10 µM

Can you share its TGI? I mean this molecule: COc1ccc2c(c1)CC[C@@H]1[C@@H]2CC[C@]2(C)c3[nH]ncc3C[C@@H]12 29.4 µM

Name the recorded TGI for CCOc1ncn(-c2ccc(NC(=S)Nc3cnccn3)cc2)n1 . > 10 µM

I have this molecule here, COCOc1cc(OC)c(Br)cc1C/C(=N/O)C(=O)OC , and I need its recorded TGI. > 100 µM

Which TGI is listed for COc1ccc([C@@H]2CC(=O)NCCCNCCCCNCCCN2)cc1 ? > 100 µM

What measured TGI goes with CCOC(=O)CCSS(=O)(=O)C(F)(F)F ? > 100 µM

TGI lookup needed for COc1cc(-c2nc3ccccc3[nH]2)ccc1OCC(=O)N=Nc1c(O)[nH]c2ccc(Cl)cc12 , thanks. 3.78 µM

Quick one: TGI of Cc1nc2nn(Cc3ccccc3)cc2c(=O)o1 ? > 100 µM
